B1: RHOBTB3 (parent)
chain: VSHVFMLLFNVKSPTDIQDSSIIR

Variants of: B1
assay info: protein stability index of a GFP-peptide fusion (GPS, HEK-293T) (PSI 1-6); higher = more stable;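 further: lentivirally expressed fusions sorted by FACS into six bins by GFP to DsRed ratio, PSI derived from sequencing read proportions per bin multiplied by bin number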
assay context: c terminus: a fixed tail appended
The reader will find reported protein stability index values listed item by item below.
result type: protein stability index

mutant label	experimental result
V11S	3.03
D16H	3.02
F5Q	1.95
D19S	2.93
M6A	3
I17H	2.01
D16A	2.52
V1K	1.05
F9R	2.74
R24W	4.43
I22V	3.37
T15G	2.76
D19N	2.96
R24T	3.31
I23S	2.33
I22Y	2.62
Q18S	3.12
L7F	3.17
L8E	1.36
S20P	3.04
I22N	1.66
Q18V	3.53
M6N	2.98
V11H	3.04
V11N	3.13
I22W	2.17
H3R	2.1
L7C	2.94
S20Y	2.66
I23A	4.9
S13Y	2.31
V11L	4.23
M6F	3.03
I23E	1.89
I23L	5.03
N10V	2.13
L7E	2.13
L7G	2.25
Q18F	2.75
V4W	2.46
L7Q	2.23
F9C	2.44
V4F	4.42
V1D	2.05
N10A	2.47
I23F	4.66
V4Q	3.13
F5M	1.44
V4R	3.04
M6P	1.59
M6K	1.42
T15W	1.62
D19E	3.13
P14M	1.72
V4M	2.52
P14V	3.52
I23K	1.4
M6H	2.87
H3W	3.07
K12Q	2.78
P14I	3.62
R24V	3.67
T15F	3.38
S2N	2.84
Q18N	1.19
S2F	3.6
N10H	3.06
S20R	1.66
I22R	1.6
F9S	2.61
R24E	2.74
V4C	4.79
I23D	2.83
